Consider the following molecules and their measured IC50 readings.
# Measured target: FLT3D835Y kinase (Homo sapiens, UniProt P36888, D835Y)
# Protocol text: FLT3D835Y kinase inhibition assay (LanthaScreen TR-FRET)
# Setup conditions: read-out: FLT3 IC50
Dear colleague, please return just the value in nM, with no unit written.

Sample answers from the record:
{"columns": ["Molecule", "IC50 / nM"],
 "data": [
  ["Nc1ncc(-c2ccccc2)nc1C(=O)Nc1cnccc1[C@@H]1C[C@H](N)[C@@H](O)[C@H](C2CC2)O1 [Example 349]", 250],
  ["Nc1ncc(-c2ccccc2)nc1C(=O)Nc1cnccc1[C@H]1C[C@@H](N)[C@H](O)[C@@H](C2CC2)O1 [Example 346]", 8.5],
  ["C[C@H]1O[C@@H](c2ccncc2NC(=O)c2nc(-c3ccccc3)cnc2N)C[C@@H](N)[C@]1(C)O [Example 228]", 2.7],
  ["C[C@@]1(O)[C@H](N)C[C@@H](c2ccncc2NC(=O)c2nc(-c3ccccc3)cnc2N)OC12CC2 [Example 352]", 2.5],
  ["N[C@@H]1C[C@H](c2ccncc2NC(=O)c2ccc(F)c(-c3c(F)cccc3F)n2)O[C@@H]2CCC[C@H]12 [Example 224]", 1600]
]}

Input line: Fill in the blank: the reported IC50 of Nc1cc(F)c(-c2c(F)cccc2F)nc1C(=O)Nc1cnccc1[C@H]1C[C@@H](N)[C@@]2(O)CCCC[C@H]2O1 [Example 238] is ____.
Output line: 990

Input line: Given C[C@@]1(O)[C@@H](N)C[C@@H](c2ccncc2NC(=O)c2nc(-c3ccccc3)cnc2N)OC12CC2 [Example 350] , state its recorded IC50.
Output line: 44

Input line: Item under review: Nc1ncc(-c2ccccc2)nc1C(=O)Nc1cnccc1[C@@H]1C[C@H](N)[C@]2(O)CCC[C@@H]2O1 [Example 185] . Reported IC50?
Output line: 1000

Input line: Entry Nc1ncc(-c2ccccc2)nc1C(=O)Nc1cnccc1[C@@H]1C[C@H](N)[C@@H]2CCC[C@@H]2O1 [Example 233] : reported IC50 = ?
Output line: 160

Input line: Reported IC50 for CC[C@H]1O[C@@H](c2ccncc2NC(=O)c2nc(-c3ccccc3)cnc2N)C[C@@H](N)[C@@H]1O [Example 343] : what is it?
Output line: 1.8

Input line: I'd like to know its IC50. The molecule in question is CCC[C@H]1O[C@@H](c2ccncc2NC(=O)c2nc(-c3ccccc3)cnc2N)C[C@@H](O)[C@@H]1O [Example 340]
Output line: 110

Input line: Field request: IC50 | item: Nc1ncc(-c2ccccc2)nc1C(=O)Nc1cnccc1[C@@H]1C[C@H](O)[C@]2(O)CCC[C@@H]2O1 [Example 186]
Output line: 1600

Input line: Need IC50, item Nc1ncc(-c2ccccc2)nc1C(=O)Nc1cnccc1[C@H]1C[C@@H](N)[C@@]2(O)CCC[C@H]2O1 [Example 183]
Output line: 4.4

###

# Measured target: UniProt:P11309
# Sequence (P11309 whole entry): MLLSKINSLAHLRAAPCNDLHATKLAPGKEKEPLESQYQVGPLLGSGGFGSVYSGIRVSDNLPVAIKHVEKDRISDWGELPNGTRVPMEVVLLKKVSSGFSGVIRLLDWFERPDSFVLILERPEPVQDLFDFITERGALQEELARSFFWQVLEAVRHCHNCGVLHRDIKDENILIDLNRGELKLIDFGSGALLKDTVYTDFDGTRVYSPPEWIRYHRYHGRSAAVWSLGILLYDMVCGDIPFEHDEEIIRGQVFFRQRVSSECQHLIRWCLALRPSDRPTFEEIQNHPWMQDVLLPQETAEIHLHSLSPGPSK
# Protocol text: KinaseGlo Pim1 ATP depletion assay
# Type: biochemical
Measured property: IC50 (nM)
State just the number; it will be interpreted in nM.

{"columns": ["Compound", "Measured property", "Unit of measurement", "Value reported"],
 "data": [
  ["C[C@@H]1O[C@H](c2ccncc2NC(=O)c2nc(-c3ccccc3)cnc2N)C[C@H](O)[C@@]1(C)O", "IC50", "nM", 5],
  ["C=C1[C@@H](O)C[C@@H](c2ccncc2NC(=O)c2nc(-c3ccccc3)cnc2N)OC12CC2", "IC50", "nM", 25.9],
  ["O=C(Nc1cnccc1[C@@H]1C[C@H](O)[C@@H](O)[C@H](C2CC2)O1)c1cccc(-c2c(F)cccc2F)n1", "IC50", "nM", 19.9],
  ["C[C@H]1O[C@@H](c2ccncc2NC(=O)c2ccc(F)c(-c3c(F)cccc3F)n2)[C@H](O)[C@@H](O)[C@]1(C)O (stereo in doubt)", "IC50", "nM", 31],
  ["CC[C@H]1O[C@@H](c2ccncc2NC(=O)c2nc(-c3ccccc3F)c(F)cc2N)C[C@@H](O)[C@@H]1O", "IC50", "nM", 1],
  ["CC1C(c2ccncc2NC(=O)c2ccc(F)c(-c3c(F)cccc3F)n2)OC(C)[C@@H](O)C1O (stereo in doubt) [Example 67]", "IC50", "nM", 4],
  ["O=C(Nc1cnccc1[C@@]1(C(F)(F)F)C[C@@H](O)C=CO1)c1ccc(F)c(-c2c(F)cccc2F)n1", "IC50", "nM", 72],
  ["O=C1CC[C@H]2O[C@@H](c3ccncc3NC(=O)c3ccc(F)c(-c4c(F)cccc4F)n3)C[C@@H](O)[C@H]2N1", "IC50", "nM", 2.6]
]}

Input line: // query IC50 value for entry CC[C@@H]1O[C@H](c2ccncc2NC(=O)c2nc(-c3c(F)cccc3F)ncc2N)C[C@H](O)[C@@]1(C)O
Output line: 65.5
